From: patent US8283481B2

Could you please report measured reduction of seed germination for the items listed next?
System: Arabidopsis thaliana Col-0 seeds
Assay: Seed germination assay
Type: in vivo
Conditions: highest concentration tested (3.33 μM)
All answers are understood in %, so give the number only.

Entry CCSCC=C(C)C#CC1(O)C(C)CC(=O)CC1(C)C (racemic) [Compound 13] has what reduction of seed germination?
38

Reported reduction of seed germination for C/C(C#C[C@@]12O[C@]1(C)C[C@@H](O)CC2(C)C)=C/CSc1ccccc1 [Compound 17] : what is it?
51

Look at this compound and give its reported reduction of seed germination. C/C(C#C[C@@]12O[C@]1(C)C[C@@H](O)CC2(C)C)=C/CNc1ccccc1 [Compound 18]
71

Which reduction of seed germination is listed for CC1=CC(=O)CC(C)(C)C1(O)/C=C/C(C)=C\C(=O)O (single isomer, unassigned; (+)) [(+)-ABA 1, Abscisic acid, reference compound] ?
96

###

Molecular target: recombinant AtNCED3 (Arabidopsis thaliana)
Construct: glutathione-S-transferase (GST) (C); made in house; host or cells: E. coli BL21(DE3), pRL296 vector
Sequence (Q9LRR7 41-599): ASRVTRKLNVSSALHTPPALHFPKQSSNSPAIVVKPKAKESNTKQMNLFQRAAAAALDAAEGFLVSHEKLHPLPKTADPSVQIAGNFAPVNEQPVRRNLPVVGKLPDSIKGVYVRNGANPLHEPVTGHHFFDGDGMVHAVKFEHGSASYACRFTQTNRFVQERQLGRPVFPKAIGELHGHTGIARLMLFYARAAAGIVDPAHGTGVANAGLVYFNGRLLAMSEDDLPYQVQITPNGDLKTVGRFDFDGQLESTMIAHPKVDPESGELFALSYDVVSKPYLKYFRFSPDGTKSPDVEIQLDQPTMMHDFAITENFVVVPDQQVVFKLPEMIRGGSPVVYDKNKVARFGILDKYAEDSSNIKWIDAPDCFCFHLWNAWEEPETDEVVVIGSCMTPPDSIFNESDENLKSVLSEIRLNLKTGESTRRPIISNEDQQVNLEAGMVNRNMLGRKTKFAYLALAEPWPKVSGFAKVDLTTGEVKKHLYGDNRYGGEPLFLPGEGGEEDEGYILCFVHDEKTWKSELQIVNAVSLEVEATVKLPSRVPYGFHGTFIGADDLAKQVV
Assay: Recombinant AtNCED3 in vitro enzyme assay (HPLC, cleavage of 9-cis-neoxanthin)
Format: biochemical
Conditions: in vitro enzyme assay, 1 mM concentration (FIG. 5)
assay endpoint: relative inhibition of AtNCED3 activity (in words)

C/C(C#C[C@@]12O[C@]1(C)C[C@@H](O)CC2(C)C)=C/CNc1ccccc1 [Compound 18]    completely inhibited
C/C(C#C[C@@]12O[C@]1(C)C[C@@H](O)CC2(C)C)=C/CSc1ccccc1 [Compound 17]    completely inhibited

###

Record form. Attribute: Ki. Fill in for each entry.
Target: recombinant AtNCED3 (Arabidopsis thaliana)
Construct: glutathione-S-transferase (GST) (C)
Assay: Recombinant AtNCED3 in vitro enzyme assay (HPLC, cleavage of 9-cis-neoxanthin)
Settings: Dixon plot, competitive inhibition; 0-250 μM inhibitor; 9-cis-neoxanthin at 50 (55), 30 and 10 μM
Number in µM, nothing else.

Would you kindly share the measured Ki for C/C(C#C[C@@]12O[C@]1(C)C[C@@H](O)CC2(C)C)=C/CNc1ccccc1 [Compound 18] ?
87

Quick check: Ki of CCSCC=C(C)C#CC1(O)C(C)CC(=O)CC1(C)C (racemic) [Compound 13] ?
93

I have this molecule here, COC(=O)CN(C/C=C/c1ccc(OC)c(OC)c1)Cc1ccc(F)cc1 [compound 9, Abamine, reference compound] , and I need its recorded Ki.
132

// lookup Ki for C/C(C#C[C@@]12O[C@]1(C)C[C@@H](O)CC2(C)C)=C/CSc1ccccc1 [Compound 17]
57
